The values you see were collected from patent US7176163B1.

Exercise: for every item that follows, state its recorded Relative value (%) of Benomyl absorption amount to that of control lot.
Test system: cotyledon of cucumber (variety: Yotsuba)
Experiment: Microbicide (Benomyl) absorption enhancement by spraying jasmonic acids
Format: in vivo
Conditions: Test Example 6: 0.01 ppm based on the Benlate solution, given at the same time
The figure you give is taken to be in %; do not add the unit.

Bench note: what Relative value (%) of Benomyl absorption amount to that of control lot did C=CCCOC(=O)CC1CCC(=O)C1CCCCC (stereo not shown) show? 155

Moving on to CCC=CCOC(=O)CC1CCC(=O)C1CCCCC (stereo not shown) 130

Moving on to C#CCCOC(=O)CC1CCC(=O)C1CCCCC (stereo not shown) 130

Moving on to C=CCOC(=O)CC1CCC(=O)C1CCCCC (stereo not shown) [ADJ, allyl (2-pentyl-3-oxocyclopentyl)acetate] 145
